The measurements presented in this section are drawn from paper PMC9636434.

- PROCEDURE DETAILS: Pharmacokinetic study, 3 mg/kg IV, 10 mg/kg PO and 10 mg/kg PO QD*3, plasma, liver and bone
- Format: in vivo, mouse
- RUN PARAMETERS: female, C57BL/6J, mouse, bone (long bones), po, 10 mg/kg, bone, PO (QD*3), 3 h, individual animals; read-out: Bone 6641 PO (QD*3) concentration
ATTRIBUTE MEASURED: concentration at 3 h (ng/g)

INSERT INTO measurements (item_smiles, attribute_measured, observed_result) VALUES
  ('O=C1Nc2ccc(-c3cc(C(F)(F)F)cc(C(F)(F)F)c3)cc2C(=O)N2CCN(C(=O)COc3ccc(OC(F)(F)F)cc3I)C[C@@H]12', 'concentration at 3 h', 337);

###

- PROCEDURE DETAILS: Pharmacokinetic study, 3 mg/kg IV, 10 mg/kg PO and 10 mg/kg PO QD*3, plasma, liver and bone
- Assay type: in vivo, mouse
- RUN PARAMETERS: female, C57BL/6J, mouse, bone (long bones), iv, 3 mg/kg, bone, IV, 7 h, individual animals; read-out: Bone 6641 IV concentration
ATTRIBUTE MEASURED: concentration at 7 h (ng/g)

INSERT INTO assay_data (compound, unit_label, observed_result) VALUES
  ('O=C1Nc2ccc(-c3cc(C(F)(F)F)cc(C(F)(F)F)c3)cc2C(=O)N2CCN(C(=O)COc3ccc(OC(F)(F)F)cc3I)C[C@@H]12 [compound 6641]', 'ng/g', 87.9);

###

- PROCEDURE DETAILS: Pharmacokinetic study, 3 mg/kg IV, 10 mg/kg PO and 10 mg/kg PO QD*3, plasma, liver and bone
- Format: in vivo, mouse
- RUN PARAMETERS: female, C57BL/6J, mouse, liver, iv, 3 mg/kg, liver, IV, 3 h, individual animals; read-out: Liver 6641 IV concentration
ATTRIBUTE MEASURED: concentration at 3 h

INSERT INTO measurements (compound, observed_result) VALUES
  ('O=C1Nc2ccc(-c3cc(C(F)(F)F)cc(C(F)(F)F)c3)cc2C(=O)N2CCN(C(=O)COc3ccc(OC(F)(F)F)cc3I)C[C@@H]12 [compound 6641]', '1570 ng/g');

###

- PROCEDURE DETAILS: Pharmacokinetic study, 3 mg/kg IV, 10 mg/kg PO and 10 mg/kg PO QD*3, plasma, liver and bone
- Assay type: in vivo, mouse
- RUN PARAMETERS: female, C57BL/6J, mouse, bone (long bones), po, 10 mg/kg, bone, PO (QD*3), 24 h, individual animals; read-out: Bone 6641 PO (QD*3) concentration
- Experimental: The concentration of compound in plasma, liver, and long bones was detected using liquid chromatography tandem mass spectrometry (LC-MS/MS). […] IV administration, one 10 mg/kg PO administration and three 10 mg/kg PO administrations (QD*3). a Plasma, b liver and c bone profiles in female mice. The actual concentration (ng/g) is the detected value (ng/mL) multiplied by 4. […] Results are expressed as the mean ± SEM.
ATTRIBUTE MEASURED: concentration at 24 h

INSERT INTO results (item_smiles, observed_result) VALUES
  ('O=C1Nc2ccc(-c3cc(C(F)(F)F)cc(C(F)(F)F)c3)cc2C(=O)N2CCN(C(=O)COc3ccc(OC(F)(F)F)cc3I)C[C@@H]12', '7.05 ng/g');

###

- PROCEDURE DETAILS: Pharmacokinetic study, 3 mg/kg IV, 10 mg/kg PO and 10 mg/kg PO QD*3, plasma, liver and bone
- Type: in vivo, mouse
- RUN PARAMETERS: female, C57BL/6 J, mouse, plasma, iv, 3 mg/kg, IV, Time 7 h; individual values (1)-(3); read-out: Plasma concentration
ATTRIBUTE MEASURED: concentration at 7 h (ng/mL)

INSERT INTO measurements (compound, unit_label, observed_result) VALUES
  ('O=C1Nc2ccc(-c3cc(C(F)(F)F)cc(C(F)(F)F)c3)cc2C(=O)N2CCN(C(=O)COc3ccc(OC(F)(F)F)cc3I)C[C@@H]12 [compound 6641]', 'ng/mL', 67.6);

###

- PROCEDURE DETAILS: Pharmacokinetic study, 3 mg/kg IV, 10 mg/kg PO and 10 mg/kg PO QD*3, plasma, liver and bone
- Type: in vivo, mouse
- RUN PARAMETERS: female, C57BL/6 J, mouse, plasma, po, 10 mg/kg, PO, Time 1 h; individual values (1)-(3); read-out: Plasma concentration
ATTRIBUTE MEASURED: concentration at 1 h (ng/mL)

INSERT INTO assay_data (compound, observed_result) VALUES
  ('O=C1Nc2ccc(-c3cc(C(F)(F)F)cc(C(F)(F)F)c3)cc2C(=O)N2CCN(C(=O)COc3ccc(OC(F)(F)F)cc3I)C[C@@H]12 [compound 6641]', 369);

###

- PROCEDURE DETAILS: Pharmacokinetic study, single 30 mg/kg IP dose, plasma, liver and bone
- Assay type: in vivo, mouse
- RUN PARAMETERS: female, C57BL/6J, mouse, liver, ip, 30 mg/kg, Time 0.5 h; individual values (1)-(3)
- Protocol: The concentration of compound in plasma, liver, and long bones was detected using liquid chromatography tandem mass spectrometry (LC-MS/MS). Samples were collected after a single intraperitoneal (IP) administration at 30 mg/kg, a single intravenous (IV) administration at 3 mg/kg, a single oral (PO) administration at 10 mg/kg, and a daily PO administration for 3 consecutive days at 10 mg/kg. […] The actual concentration (ng/g) is the detected value (ng/mL) multiplied by 4. […] expressed as the mean ± SEM.
ATTRIBUTE MEASURED: concentration at 0.5 h (ng/g)

INSERT INTO results (item_smiles, unit_label, observed_result) VALUES
  ('O=C1Nc2ccc(-c3cc(C(F)(F)F)cc(C(F)(F)F)c3)cc2C(=O)N2CCN(C(=O)COc3ccc(OC(F)(F)F)cc3I)C[C@@H]12', 'ng/g', 3040);

###

- PROCEDURE DETAILS: Pharmacokinetic study, 3 mg/kg IV, 10 mg/kg PO and 10 mg/kg PO QD*3, plasma, liver and bone
- Format: in vivo, mouse
- RUN PARAMETERS: female, C57BL/6J, mouse, liver, iv, 3 mg/kg, liver, IV, 0.5 h, individual animals; read-out: Liver 6641 IV concentration
ATTRIBUTE MEASURED: concentration at 0.5 h (ng/g)

INSERT INTO results (compound, attribute_measured, observed_result) VALUES
  ('O=C1Nc2ccc(-c3cc(C(F)(F)F)cc(C(F)(F)F)c3)cc2C(=O)N2CCN(C(=O)COc3ccc(OC(F)(F)F)cc3I)C[C@@H]12 [compound 6641]', 'concentration at 0.5 h', 8740);

###

- PROCEDURE DETAILS: Pharmacokinetic study, single 30 mg/kg IP dose, plasma, liver and bone
- Type: in vivo, mouse
- RUN PARAMETERS: female, C57BL/6J, mouse, plasma, ip, 30 mg/kg, IP, Time 0.083 h; individual values (1)-(3); read-out: Plasma concentration
- Experimental: The concentration of compound in plasma, liver, and long bones was detected using liquid chromatography tandem mass spectrometry (LC-MS/MS). Samples were collected after a single intraperitoneal (IP) administration at 30 mg/kg, a single intravenous (IV) administration at 3 mg/kg, a single oral (PO) administration at 10 mg/kg, and a daily PO administration for 3 consecutive days at 10 mg/kg. […] The actual concentration (ng/g) is the detected value (ng/mL) multiplied by 4. […] expressed as the mean ± SEM.
ATTRIBUTE MEASURED: concentration at 0.083 h (ng/mL)

INSERT INTO assay_data (item_smiles, observed_result) VALUES
  ('O=C1Nc2ccc(-c3cc(C(F)(F)F)cc(C(F)(F)F)c3)cc2C(=O)N2CCN(C(=O)COc3ccc(OC(F)(F)F)cc3I)C[C@@H]12', 60.9);

###

- PROCEDURE DETAILS: Pharmacokinetic study, 3 mg/kg IV, 10 mg/kg PO and 10 mg/kg PO QD*3, plasma, liver and bone
- Assay type: in vivo, mouse
- RUN PARAMETERS: female, C57BL/6 J, mouse, liver, po, 10 mg/kg, liver, PO (QD*3), 7 h, individual animals; read-out: Liver 6641 PO (QD*3) concentration
ATTRIBUTE MEASURED: concentration at 7 h (ng/g)

INSERT INTO measurements (compound, attribute_measured, unit_label, observed_result) VALUES
  ('O=C1Nc2ccc(-c3cc(C(F)(F)F)cc(C(F)(F)F)c3)cc2C(=O)N2CCN(C(=O)COc3ccc(OC(F)(F)F)cc3I)C[C@@H]12 [compound 6641]', 'concentration at 7 h', 'ng/g', 1010);
